The origin of these recorded values is PubChem BioAssay AID1159580.

The following compounds are listed with their measured normalized growth values.
- EXPERIMENT NOTES: chemical genetic growth profiling, strain panel (AID 1159580);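 note: tested at 20 µM; growth read once vehicle control cultures reached saturation at 30 °C; 1 = growth at the plate median or of vehicle wells; lower values mean less growth of the strain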
- STATED CONDITIONS: S. cerevisiae deletion strains, growth OD, locus YMR058W, strain fet3, hits give low values
The campaign covered roughly 5,500 compounds. About 2,000 (36%) were called active. Not shown: some 18% with an inconclusive outcome. This is one part of the list.
Give your answer as a number; write no unit.

In: Supply normalized growth value. Item: C[C@@H]1CC2C3CCC4=CC(=O)C=C[C@]4(C)[C@@]3(F)[C@@H](O)C[C@]2(C)[C@@]1(O)C(=O)COP(=O)(O)O (stereo not given in full)
Out: 0.978

In: Answer with reported normalized growth of CC[C@@]1(C2O[C@@H](C3O[C@@](O)(CC)[C@H](C)C[C@@H]3C)C[C@@H]2C)CC[C@H]([C@]2(C)CCC3(C[C@H](O)[C@@H](C)[C@@H]([C@H](C)[C@@H](OC)[C@H](C)C(=O)O)O3)O2)O1 (stereo not given in full)
Out: 1.01

In: Identify normalized growth associated with the compound Nc1c(Br)cc(Br)cc1CNC1CCC(O)CC1 (stereo not given)
Out: 1.02

###

- EXPERIMENT NOTES: chemical genetic growth profiling, strain panel (AID 1159580);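 note: tested at 20 µM; growth read once vehicle control cultures reached saturation at 30 °C; 1 = growth at the plate median or of vehicle wells; lower values mean less growth of the strain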
- STATED CONDITIONS: S. cerevisiae deletion strains, growth OD, locus YBR135W, strain CKS1, hits give low values
About 2,000 (36%) of roughly 5,500 compounds were called active. About 18% were inconclusive and are not listed. This is one part of the list.
Reported normalized growth is given for each of the following compounds.
Note: the reply should be a number with no unit written.

Observe how each entry below is paired with its result.
| COMPOUND | OBSERVED |
| --- | --- |
| N/C(=N/OC(=O)c1ccc(Cl)cc1)c1ccc(F)cc1F | 0.9 |
| COc1cc(N=Cc2cc(Cl)cc(Cl)c2OC(=O)c2cc(OC)c(OC)c(OC)c2)c(OC)cc1Cl | 0.969 |

In: Please report the measured normalized growth for CC12CC[C@@H](O)CC1=CC[C@@H]1C2CCC2(C)C(=O)CC[C@@H]12 (stereo not given in full)
Out: 1.02

In: Identify measured normalized growth associated with `O=C(CCSc1cccs1)Nc1cccc(C(F)(F)F)c1`
Out: 0.929

In: Answer with the recorded normalized growth for the compound listed here: `COc1cc(C(=O)Oc2c(Cl)cc(Cl)cc2C=Nc2ccc([N+](=O)[O-])cc2C#N)cc(OC)c1OC`
Out: 0.969

In: State its normalized growth for this compound: CCCC1c2ccsc2CCN1C(=S)Nc1ccc(Cl)cc1Cl (stereo not given)
Out: 0.983

In: Give reported normalized growth value for `CC(=O)C(Sc1nc2ccccc2s1)C(C)=O`
Out: 0.915

In: Dear colleague, please send me the reported normalized growth for `CCOC(=O)CCc1cc(N=Cc2cc(Br)ccc2O)c(O)c(N=Cc2cc(Br)ccc2O)c1` when you can.
Out: 0.968

In: Tell me its normalized growth given `COc1cc(N=Cc2cc(Cl)cc(Cl)c2OS(=O)(=O)c2ccc(C)cc2)c(OC)cc1Cl` as the entry.
Out: 0.943

In: Write down normalized growth measured for item `CCOC(=O)NC(=S)NC12CC3CC(CC(C3)C1)C2`
Out: 0.977
